Below is a list of entries, each paired with its recorded koff value.
Target: T1, SARS-CoV2 Spike ecto foldon Trimer expressed with a C-terminal myc-myc-hexahistidine (SARS-CoV-2, UniProt P0DTC2 14-1213)
T1 construct: extracellular domain
Experiment: SPR Biacore, mAb captured by anti-hFc, 25C
measurement-type: koff (s⁻¹)

binder: mAb15170 (antibody, V domains shown) VH: EVQLVESGGGLVQPGGSLRLSCAATGITVSSNYMSWVRQAPGKGLEWVSLIYSGGSTFYADSVKGRFTISRHNSKNTLYLQMSSLRAEDTAVYYCARDLVDFGMDVWGQGTTVTVSS VL: DIQLTQSPSSLSASVGDRVTITCRASQGISNYLAWYQQKPGKAPKLLIYAASTLQSGVPSRFSGSGSGTDFTLTISSLQPEDFGTYYCQQLNSDSPTFGQGTKVEIKR
meas-value: 1.29e-05

binder: mAb15159 (antibody, V domains shown) VH: EVQLVESGGGLVQPGGSLRLSCAASGITVSSNYMTWVRQAPGKGLEWVSLIYSGGSTFYADSVRGRFTISRDNSKNTLYLQMNSLRAEDTAVYYCARDLVVYGMDVWGQGTTVTVSS VL: DIQLTQSPSSLSASVGDRVTITCRASQGISSYLAWYQQKPGKAPKLLIYAASTLQSGVPSRFSGSGSGTDFTLTISSLQPEDFATYYCQHLNSDPHTFGQGTKLEIKR
meas-value: 2.02e-05

binder: mAb14282 (antibody, V domains shown) VH: QVQLVQSGAEVKKPGASVKVSCKASGYIFTDHYMHWVRQAPGQGLEWMGWINPNSGATNYAQNFQGRVTMTRDTSIITVYMELSRLRSDDTAVYYCARDSSPYMIRYTMDVWGQGTTITVSS VL: QSALTQPASVSGSPGQSITISCTGTSSDVGSYNLVSWYQQHPGKAPKLMIYELTKRPSGVSNRFSGSKSGNTASLTISGLQAEDEADYYCSSYRGSVTDVVFGGGTKLTVLG
meas-value: 0.000133
